Cited source: patent US20110059095A1

// reported T1/2 for each item listed
target: T1, Peptide A (human PAR-2), C-terminal biotinylated (Human, C-terminal biotin via G4S linker); assay: SPR, peptide immobilized
T1 construct: also called Peptide A C-Term

BINDER: H4H583P (antibody, human IgG4, V domains shown, also called H1H583P variable regions) VH: QVQLVESGGGVVQPGMSLRLSCTASGFTFRRYGMHWVRQAPGKGLEWVAVIWYDGSNKYYADSVKGRFTITRDNSKNTLYLQMNSLRAEDTAIYFCASEITIGDWFDPRGQGTLVTVSS VL: AIQMTQSPSSLSASVGDRVTITCRASQGIRNDLGWFQQKPGKVPKLLIYAASTLHSGVPSRFSGSGFGTDFTLTISSLQPEDFATYYCLQDFNYPLTFGGGTKVEIK
UNIT: h
T1/2: 0.567

BINDER: H2M591N (antibody, V domains shown, chimeric: human variable, mouse constant domains) VH: EVQLLESGGGLVQPGGSLRLSCATSGFTFSRYTMTWVRQAPGKGLFWVSGIGGSGGRAYYADSVKGRFTLSRDNSKNTLYLQMNSLRAEDTAVYYCAKEGDSGYDLDYWGRGTLVTVSS VL: DIQMTQYPSSLSASVGDRVTITCRARQGISNYLAWLQQKPGKAPKSLIYAASSLQRGVPSKFSGSGSGTDFTLTISSLQPEDSATYYCQQYKISPLTFGGGTKVEIK
UNIT: h
T1/2: 3.48
